The measurements presented in this section are drawn from PubChem BioAssay (NCI).

Protocol details: NCI Yeast Anticancer Drug Screen. Data for the bub3 strain (AID 167)
Reported conditions: S. cerevisiae bub3 mutant strain, at 50.0 µM, stronger effect = higher value
The panel holds about 79,000 compounds, 15% with a hit somewhere; the sample as a whole holds those more often.
Examples of compounds with documented growth inhibition follow.
Write the answer as a number in %, unit excluded.

Query COc1ccc(SSc2ccc(OC)cc2)cc1 yields growth inhibition of 6.2

Query N#CC1=C(c2ccccc2)C(=C2Nc3ccccc3N2)C2S/C(=C\c3ccccc3)C(=O)N2C1=N (stereo not given) yields growth inhibition of 4.45

Query COC(=O)/C(=N\NC(C)(C)C)C(C(=O)C(=O)Nc1cc(C)ccc1C)c1nc2ccccc2[nH]c1=O (stereo not given) yields growth inhibition of -7.95

Query CC1CC(C)OC(C)(c2ccccc2)O1 (stereo not given) yields growth inhibition of -18.5

Query O=C1c2cccc3c([N+](=O)[O-])ccc(c23)C(=O)N1CC1CCCO1 (stereo not given) yields growth inhibition of 51.8

Query CO[C@@H]1[C@@H](O)c2ccccc2N1C(C)=O yields growth inhibition of 3.25

Query O=C1NOCC1NCc1c(O)ccc2ccccc12 (stereo not given) yields growth inhibition of 17.9

Query CS/C(=N/N=C(\C)c1ccccn1)[Se][Se]/C(=N/N=C(\C)c1ccccn1)SC yields growth inhibition of -2.5

Query COC(=O)c1ccc(C(=O)OC)nc1 yields growth inhibition of -25.6

Query CCOC12CC(OC(=O)N1)C(C)C1OC1(C)C(OC(=O)C(C)N(C)C(C)=O)CC(=O)N(C)c1cc(cc(OC)c1Cl)C/C(C)=C/C=CC2OC (stereo not given) yields growth inhibition of -20.4
